- Method Notes: modulation of C. elegans fzo-1 (AID 1259413);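 further: fzo-1 mutant C. elegans worms in liquid wells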
- Condition Description: C. elegans fzo-1 modulator screen, mean read-out; stronger effect = higher value
Some molecules, each annotated with its measured mean signal.

| Molecule | mean signal |
| --- | --- |
| CC[C@]1(O)CC[C@H]2[C@@H]3CCC4=CCCC[C@@H]4[C@H]3CCC21C (stereo not given in full) | 230 |
| COc1ccc(C(CN(C)C)C2(O)CCCCC2)cc1 (stereo not given) | 261 |
| NC(=O)CS(=O)C(c1ccccc1)c1ccccc1 (stereo not given) | 263 |
| CCCCCCCCCOc1ccc2[nH]cc(CCN)c2c1 | 264 |
| Oc1cc(Cl)ccc1Oc1ccc(Cl)cc1Cl | 192 |

====

- Method Notes: kinase inhibitors against Plasmodium liver-stage infection, cell-based, known kinase inhibitor set, luminescence, hepatoma host viability (AID 624392);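 further: infected cells incubated roughly two days before readout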
- Condition Description: Plasmodium liver stage in hepatoma cells, luciferase luminescence, concentration not given here; measured here: host liver cell viability
Catalogue of liver cell % of control values

| Molecule | liver cell % of control / % |
| --- | --- |
| NS(=O)(=O)c1ccc(-c2ccc(C=C3C(=O)NC(=S)NC3=O)o2)cc1 | 102 |
| O=C(NC1NNC2NNC(c3cccnc3)CC21)C1CC1 (configuration not stated) | 79.6 |
| CNC(=O)Oc1cc(C)c(/C=C/c2cncc(C(=O)NC)c2)c(C)c1 | 111 |
| NS(=O)(=O)c1ccc(-c2ccc(C=C3C(=O)NC(=O)NC3=O)o2)cc1 | 104 |
| O=C1NC(=O)C(=Cc2ccc(-c3ccc([N+](=O)[O-])cc3)o2)C(=O)N1 | 98 |
| O=C1NC(=O)C(=Cc2ccc(-c3ccc(Cl)cc3)o2)C(=O)N1 | 87 |
| Cn1cc(C2=C(c3cn(CCCNC(N)=N[N+](=O)[O-])c4ccccc34)C(=O)NC2=O)c2ccccc21 | 106 |

====

- Method Notes: SU-DIPG-XXV glioma cell viability, MIPE5.0 library, qHTS (AID 1347068);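 on IC50: cells exposed to compound for 48 hours before viability readout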
Records with an inconclusive call do not appear. Calls of active or inactive are those of the source. Cut-off not given; nearly all actives show IC50 up to about 30 µM.

| Compound | IC50 |
| --- | --- |
| N[C@@H](Cc1ccc(N(CCCl)CCCl)cc1)C(=O)O | 29.5 µM (active) |
| CC1(C)CC(O)CC(C)(C)N1O | inactive |
| CC1(C)C(=O)N(c2ccc(C#N)c(C(F)(F)F)c2)C(=S)N1Cc1ccc(-c2cn[nH]n2)cc1 | inactive |
| CC(=O)c1c(O)c(C)c(O)c(Cc2c(O)c3c(c(C(=O)/C=C/c4ccccc4)c2O)OC(C)(C)C=C3)c1O | inactive |
| O=P1(NCCCl)OCCCN1CCCl (centres undefined) | inactive |
| O=c1cccc2n1CC1CNC[C@H]2C1 | inactive |
| Cc1cccc(C)c1NC(=O)CN1CCCC1=O | inactive |
| NC(=O)[C@@H](CC1CC1)[C@@H](CCC(F)(F)F)C(=O)N[C@H]1N=C(c2ccccc2)c2cccc(F)c2NC1=O | inactive |
| Fc1ccc(C(OCCN2CCN(CCCc3ccccc3)CC2)c2ccc(F)cc2)cc1 | 16.6 µM (active) |
| O=S(=O)(F)Cc1ccccc1 | inactive |
| C[C@@H]1CC[C@H]2[C@@H](C)C(=O)O[C@@H]3O[C@@]4(C)CC[C@@H]1[C@]32OO4 | inactive |
| C[C@@H]1CC[C@@]2(OC1)O[C@H]1C[C@H]3[C@@H]4CC=C5C[C@@H](O[C@@H]6O[C@H](CO)[C@@H](O[C@@H]7O[C@@H](C)[C@H](O)[C@@H](O)[C@H]7O)[C@H](O)[C@H]6O[C@@H]6O[C@@H](C)[C@H](O)[C@@H](O)[C@H]6O)CC[C@]5(C)[C@H]4CC[C@]3(C)[C@H]1[C@@H]2C | 3.72 µM (active) |
| O=C(O)C(=O)c1cn(Cc2ccccc2)c2ccc(-c3ccc(OC(F)(F)F)cc3)cc12 | inactive |
| O=c1[nH]c2ccccc2n1CCCN1CCC(n2c(=O)[nH]c3cc(Cl)ccc32)CC1 | inactive |
| O=C(Nc1ccncc1)C(=O)c1cn(Cc2ccc(Cl)cc2)c2ccccc12 | 0.372 µM (active) |
| CN1CCN(c2ccc([N+](=O)[O-])c3no[n+]([O-])c23)CC1 | inactive |
| CC(N[C@H]1C[C@@H]1c1ccccc1)c1ccc2c(c1)OCCO2 (some centres undefined) | inactive |
| CC(=O)OC[C@H]1O[C@@H]([S-])[C@H](OC(C)=O)[C@@H](OC(C)=O)[C@@H]1OC(C)=O.CC[PH+](CC)CC.[Au] | 2.63 µM (active) |
| CCc1c(C(=O)C(N)=O)c2c(OCC(=O)O)cccc2n1Cc1ccccc1 | inactive |

// provenance: PubChem BioAssay
